Measured values drawn from BindingDB's records for doi:10.1016/0960-894X(95)00507-P for this set.

Molecular target: Dimer of Gag-Pol polyprotein [489-587] (Human immunodeficiency virus 1, UniProt P12497)
Construct: 489-587
Assay: Protease Inhibition Assay
Conditions: pH 5.5; 22 °C
pIC50: −log10 of the molar value.
Below, each entry is listed alongside its reported pIC50.
quantity_kind: pIC50

>>> measurement("C[C@@H]1[C@@H](OC(=O)N[C@@H](CSc2ccccc2)[C@H](O)CN2C[C@H]3CCS[C@H]3CC2C(=O)NC(C)(C)C)CCS1(=O)=O (stereo not given in full) [hydroxyethylene isostere]")
8.28
>>> measurement("C[C@@H]1OCC[C@@H]1OC(=O)N[C@@H](CSc1ccccc1)[C@H](O)CN1C[C@H]2CCS[C@H]2CC1C(=O)NC(C)(C)C (stereo not given in full)")
9.55
>>> measurement("CC(C)(C)NC(=O)C1C[C@@H]2SCC[C@@H]2CN1C[C@@H](O)[C@H](CSc1ccccc1)NC(=O)O[C@H]1CCS(=O)(=O)C1 (stereo not given in full) [hydroxyethylene isostere]")
8.77
>>> measurement("C[C@@H]1[C@H](OC(=O)N[C@@H](Cc2ccccc2)[C@H](O)CN2C[C@H]3CCCC[C@H]3CC2C(=O)NC(C)(C)C)CCS1(=O)=O (stereo not given in full) [hydroxyethylene isostere]")
8.00
>>> measurement("CC(C)[C@H]1[C@@H](OC(=O)N[C@@H](Cc2ccccc2)[C@H](O)CN2C[C@H]3CCCC[C@H]3CC2C(=O)NC(C)(C)C)CCS1(=O)=O (stereo not given in full) [hydroxyethylene isostere]")
8.09
>>> measurement("C[C@H]1OCC[C@H]1OC(=O)N[C@@H](CSc1ccccc1)[C@H](O)CN1C[C@H]2CCS[C@H]2CC1C(=O)NC(C)(C)C (stereo not given in full) [hydroxyethylene isostere]")
8.52
>>> measurement("C[C@@H]1[C@H](OC(=O)N[C@@H](CSc2ccccc2)[C@H](O)CN2C[C@H]3CCS[C@H]3CC2C(=O)NC(C)(C)C)CCS1(=O)=O (stereo not given in full) [hydroxyethylene isostere]")
9.12
>>> measurement("C[C@H]1[C@@H](OC(=O)N[C@@H](CSc2ccccc2)[C@H](O)CN2C[C@H]3CCS[C@H]3CC2C(=O)NC(C)(C)C)CCS1(=O)=O (stereo not given in full) [hydroxyethylene isostere]")
9.40
>>> measurement("CC(C)(C)NC(=O)C1C[C@@H]2SCC[C@@H]2CN1C[C@@H](O)[C@H](CSc1ccccc1)NC(=O)O[C@@H]1CCS(=O)(=O)C1 (stereo not given in full) [hydroxyethylene isostere]")
8.70
>>> measurement("C[C@H]1[C@H](OC(=O)N[C@@H](CSc2ccccc2)[C@H](O)CN2C[C@H]3CCS[C@H]3CC2C(=O)NC(C)(C)C)CCS1(=O)=O (stereo not given in full) [hydroxyethylene isostere]")
8.85

---

Molecular target: Dimer of Gag-Pol polyprotein [489-587] (Human immunodeficiency virus 1, UniProt P12497)
Construct: 489-587
Assay: Protease Inhibition Assay
pIC50: −log10 of the molar value.
// not satisfied strictly below 9 in pIC50; satisfied otherwise

>>> group_label("CC(C)[C@@H]1[C@H](OC(=O)N[C@@H](CSc2ccccc2)[C@H](O)CN2C[C@H]3CCS[C@H]3CC2C(=O)NC(C)(C)C)CCS1(=O)=O (some centres not stated) [hydroxyethylene isostere]")
"satisfied"
>>> group_label("CC(C)[C@@H]1SCC[C@@H]1OC(=O)N[C@@H](Cc1ccccc1)[C@H](O)CN1C[C@H]2CCS[C@H]2CC1C(=O)NC(C)(C)C (some centres not stated) [hydroxyethylene isostere]")
"not satisfied"
>>> group_label("CC(C)[C@H]1[C@@H](OC(=O)N[C@@H](Cc2ccccc2)[C@H](O)CN2C[C@H]3CCS[C@H]3CC2C(=O)NC(C)(C)C)CCS1(=O)=O (some centres not stated) [hydroxyethylene isostere]")
"not satisfied"
>>> group_label("CC(C)[C@H]1SCC[C@H]1OC(=O)N[C@@H](Cc1ccccc1)[C@H](O)CN1C[C@H]2CCS[C@H]2CC1C(=O)NC(C)(C)C (some centres not stated)")
"satisfied"
>>> group_label("CC(C)[C@@H]1[C@H](OC(=O)N[C@@H](Cc2ccccc2)[C@H](O)CN2C[C@H]3CCCC[C@H]3CC2C(=O)NC(C)(C)C)CCS1(=O)=O (some centres not stated)")
"not satisfied"
